Literature survey of pIC50 (system: Neuropeptide Y receptor type 1 (Homo sapiens, UniProt P25929)).
Sequence (P25929 whole entry): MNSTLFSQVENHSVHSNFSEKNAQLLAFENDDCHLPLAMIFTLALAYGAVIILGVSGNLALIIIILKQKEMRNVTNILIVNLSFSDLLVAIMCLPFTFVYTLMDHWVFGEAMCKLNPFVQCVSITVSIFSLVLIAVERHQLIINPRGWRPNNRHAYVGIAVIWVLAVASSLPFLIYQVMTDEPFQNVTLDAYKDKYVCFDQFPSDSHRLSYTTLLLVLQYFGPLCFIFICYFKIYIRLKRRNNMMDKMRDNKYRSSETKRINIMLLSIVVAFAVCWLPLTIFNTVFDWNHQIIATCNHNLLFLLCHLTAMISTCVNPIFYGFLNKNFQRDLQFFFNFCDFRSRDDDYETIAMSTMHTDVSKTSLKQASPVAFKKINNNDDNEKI
pIC50: −log10 of the molar value.

Answered cases to consult:
>  <COMPOUND>
O=C(NNC(=O)[C@H]1CC[C@H](CNS(=O)(=O)c2cccc3cccnc23)CC1)c1cc2ccccc2s1

>  <pIC50>
< 5.00

$$$$
>  <COMPOUND>
COc1ccc2c(c1)CC(NCC1CCN(CCNS(=O)(=O)c3cccc4ccccc34)CC1)CCC2 (stereo unspecified)

>  <pIC50>
4.85

$$$$
>  <COMPOUND>
Cn1nnc(-c2ccc3[nH]c([C@H]4CC[C@@]5(CC4)OC(=O)c4ccccc45)nc3c2)n1

>  <pIC50>
< 5.00

$$$$
>  <COMPOUND>
Cc1ccc(S(=O)(=O)NC[C@H]2CC[C@H](C(=O)NNC(=O)c3cccs3)CC2)cc1

>  <pIC50>
< 5.00

$$$$
>  <COMPOUND>
O=C(NNC(=O)[C@H]1CC[C@H](CNS(=O)(=O)c2ccc(Br)cc2)CC1)c1cc2ccccc2s1

>  <pIC50>
< 5.00

$$$$

Task item: Supply reported pIC50 belonging to this compound: C[C@@H]1NC(c2cc(C#N)ccn2)=N[C@@]1(c1ccc(F)cc1)c1ccc(F)nc1
Reply: < 5.00
